Source of measurements: paper PMC10914734

Tested on: HCoV-229E PsV
Experiment: microbe, parasite or virus in culture
Type: cell-based
Conditions: Human coronavirus 229E, Huh-7, read-out: EC50, HCoV-229E PsV
pEC50: −log10 of the molar value.
// pEC50 lookup, one value per entry

compound	subject of test	pEC50
O=C(NCc1ccccc1)C(=O)[C@H](C[C@@H]1CCCNC1=O)NC(=O)[C@H](Cc1ccc(F)cc1)NC(=O)c1cc2ccccc2o1 [14a]	HCoV-229E PsV	7.73
O=C(NCc1ccccc1)C(=O)[C@H](C[C@@H]1CCCNC1=O)NC(=O)[C@H](CC1CCCCC1)NC(=O)c1cc2ccccc2o1 [14b]	HCoV-229E PsV	7.88

====

// Cmax lookup, one value per entry
Assay: Pharmacokinetics in rats
Format: in vivo
Details: male, SD, rat, plasma, po, p.o. (10 mg/kg)
parameter: Cmax (µg/mL)

compound	parameter	units symbol	reported measurement
O=C(NCc1ccccc1)C(=O)[C@H](C[C@@H]1CCCNC1=O)NC(=O)[C@H](Cc1ccc(F)cc1)NC(=O)c1cc2ccccc2o1 [14a]	Cmax	µg/mL	0.416
O=C(NCc1ccccc1)C(=O)[C@H](C[C@@H]1CCCNC1=O)NC(=O)[C@H](CC1CCCCC1)NC(=O)c1cc2ccccc2o1 [14b]	Cmax	µg/mL	0.982

====

Assay: Pharmacokinetics in mice
Format: in vivo
Conditions: male, ICR, mouse, plasma, iv, 14a, i.v. (5 mg/kg), read-out: MRTINF_obs

compound	MRT inf
O=C(NCc1ccccc1)C(=O)[C@H](C[C@@H]1CCCNC1=O)NC(=O)[C@H](Cc1ccc(F)cc1)NC(=O)c1cc2ccccc2o1 [14a]	2.4 h

====

Assay: Pharmacokinetics in mice
Assay type: in vivo
Settings: male, CD-1, mouse, plasma, iv, 14b, i.v. (10 mg/kg), read-out: AUCINF_obs

compound	AUC(0-inf) (ng·h/mL)
O=C(NCc1ccccc1)C(=O)[C@H](C[C@@H]1CCCNC1=O)NC(=O)[C@H](CC1CCCCC1)NC(=O)c1cc2ccccc2o1 [14b]	2980

====

// clearance lookup, one value per entry
Assay: Pharmacokinetics in rats
Type: in vivo
Conditions: male, SD, rat, plasma, iv, i.v. (5 mg/kg)

compound	clearance (mL/min/kg)
O=C(NCc1ccccc1)C(=O)[C@H](C[C@@H]1CCCNC1=O)NC(=O)[C@H](CC1CCCCC1)NC(=O)c1cc2ccccc2o1 [14b]	19.6
O=C(NCc1ccccc1)C(=O)[C@H](C[C@@H]1CCCNC1=O)NC(=O)[C@H](Cc1ccc(F)cc1)NC(=O)c1cc2ccccc2o1 [14a]	20.6

====

Assay: Pharmacokinetics in mice
Format: in vivo
Conditions: male, CD-1, mouse, plasma, ip, 14b, i.p. (20 mg/kg)
parameter: bioavailability (%)

molecule	parameter	units symbol	reported measurement
O=C(NCc1ccccc1)C(=O)[C@H](C[C@@H]1CCCNC1=O)NC(=O)[C@H](CC1CCCCC1)NC(=O)c1cc2ccccc2o1 [14b]	bioavailability	%	128

====

Assay: Pharmacokinetics in mice
Format: in vivo
Settings: male, CD-1, mouse, plasma, iv, 14b, i.v. (10 mg/kg)

molecule	half-life, h
O=C(NCc1ccccc1)C(=O)[C@H](C[C@@H]1CCCNC1=O)NC(=O)[C@H](CC1CCCCC1)NC(=O)c1cc2ccccc2o1 [14b]	3.34
